- system-under-test: Calpain-1 catalytic subunit (Sus scrofa, UniProt P35750)
- Sequence (P35750 whole entry): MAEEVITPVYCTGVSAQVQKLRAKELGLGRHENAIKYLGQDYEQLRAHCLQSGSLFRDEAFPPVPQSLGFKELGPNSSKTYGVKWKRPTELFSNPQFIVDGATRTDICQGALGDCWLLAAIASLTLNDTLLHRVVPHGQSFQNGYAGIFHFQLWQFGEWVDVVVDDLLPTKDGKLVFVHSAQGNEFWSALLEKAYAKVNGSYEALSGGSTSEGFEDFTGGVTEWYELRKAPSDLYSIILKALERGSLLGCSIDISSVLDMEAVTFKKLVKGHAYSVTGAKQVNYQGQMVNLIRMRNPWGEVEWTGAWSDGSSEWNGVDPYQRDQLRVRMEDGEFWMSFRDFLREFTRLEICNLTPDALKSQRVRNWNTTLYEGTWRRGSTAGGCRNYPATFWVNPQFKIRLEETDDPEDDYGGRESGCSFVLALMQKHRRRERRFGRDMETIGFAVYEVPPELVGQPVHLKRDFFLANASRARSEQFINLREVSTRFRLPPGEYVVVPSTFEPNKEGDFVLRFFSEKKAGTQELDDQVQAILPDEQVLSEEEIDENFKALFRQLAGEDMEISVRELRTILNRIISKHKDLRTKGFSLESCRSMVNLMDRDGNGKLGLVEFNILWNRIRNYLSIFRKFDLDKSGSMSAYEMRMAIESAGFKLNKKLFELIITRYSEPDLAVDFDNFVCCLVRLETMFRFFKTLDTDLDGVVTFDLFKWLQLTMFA
- procedure-details: Inhibitory activity against porcine calpain I using Suc-Leu-Tyr-AMC fluorogenic substrate
pIC50: −log10 of the molar value.
A collection of molecules and their measured pIC50

- molecule: "CCNC(=O)C(=O)[C@H](Cc1ccc(Cl)cc1)NC(=O)[C@@H](NC(=O)CCCCC1CCSS1)C(C)(C)C (stereo partly drawn)"
  pIC50: "< 6.00"

Please look up its pIC50: CC(C)C[C@H](NC(=O)CCCCC1CCSS1)C(=O)NC(Cc1ccc(Br)cc1)C(=O)C(=O)NC(C)(C)C (stereo partly drawn)
< 6.00

I have this molecule here, CCNC(=O)C(=O)[C@H](CCc1ccccc1)NC(=O)[C@@H](NC(=O)CCCCC1CCSS1)C(C)C (stereo partly drawn) , and I need its recorded pIC50.
< 6.00
